System: MCF-7 cells (human breast adenocarcinoma)
procedure details: MTT antiproliferative assay, MCF-7
Type: cell-based
settings: MTT assay, MCF-7, triplicate; read-out: In vitro cytotoxicity IC50, MCF-7
pIC50: −log10 of the molar value.
readout name: pIC50

{"compound": "CN(C)C/C=C/C(=O)Nc1cc2c(Nc3ccc(F)c(Cl)c3)ncnc2cc1O[C@H]1CCOC1 [Afatinib, reference compound]", "readout name": "pIC50", "assay value": 5.14}
{"compound": "CC(=C(C#N)C#N)c1cc2ccccc2o1 [Compound 2]", "readout name": "pIC50", "assay value": 5.08}

---

Test system: WI38 normal cell
procedure details: MTT cytotoxicity on normal fibroblast cells
Assay type: cell-based
settings: Homo sapiens, WI-38; MTT assay, non tumour normal cell WI38
pIC50: −log10 of the molar value.

{"molecule": "COc1cccc2c1C(=O)c1c(O)c3c(c(O)c1C2=O)C[C@@](O)(C(=O)CO)C[C@@H]3O[C@H]1C[C@H](N)[C@H](O)[C@H](C)O1 [DOX, Doxorubicin, reference compound]", "pIC50": 4.26}
{"molecule": "CCCCNc1nccc(-c2cc3ccccc3o2)c1C#N", "pIC50": 3.69}
{"molecule": "COc1ccc(CCNc2nccc(-c3cc4ccccc4o3)c2C#N)cc1", "pIC50": 4.12}
{"molecule": "N#Cc1c(-c2cc3ccccc3o2)ccnc1NCCCO", "pIC50": 3.82}
